Listed next: entries and their corresponding cytotoxicity at 70.5 h.
Assay: Human HepG2 cell viability assay in 384 well format
Assay type: toxicity, cell-based
Parameters: dose 125 nL, time 70.5 hour; concentration not given beside the values
Details: HepG2 cells, read-out: Inhibition
measure: cytotoxicity at 70.5 h

• CC(C)(C)OCCN1CCCC1c1nc(Cc2ccc(F)cc2)no1 (stereo not given) = 11.6%
• Cc1cc(N2CCN(Cc3cn(C)nc3C)CC2)cc(C2CCNC2)n1 (stereo not given) = -5.44%
• CSCC[C@H](NC(C)=O)c1nc(CCc2ccccc2)n[nH]1 = -3.53%
• Cc1cc2nc(CO[C@H]3CN(C4CCN(C)CC4)C[C@H]3F)[nH]c2cc1C = -4.5%
• COCc1c(Cl)cccc1NC(=O)CNC(=O)C(C)(C)C = -4.66%
• CCC1COCCN1C(=O)CNC(=O)c1ccoc1C (stereo not given) = -5.54%
• Cc1nccn1C1CCCN(C(=O)c2ccc3nncn3c2)C1 (stereo not given) = -4.02%
• CC1CCN(C(=O)C2CC(=O)N(c3cnn(C(C)C)c3)C2)CC1 (stereo not given) = -13.2%
• COCCN1CCC(CN(CC2CCCO2)C(=O)C2CCOCC2)CC1 (stereo not given) = -5.33%
• Cc1ccc(O)c(CN2CCCCC2CCN2CCOCC2)c1 (stereo not given) = -7.89%
• Cc1cc(CN(CCO)Cc2cc(Br)ccc2F)no1 = -17.4%
• CC(C)(O)CCc1cccc(C(=O)NCC2COCCO2)c1 (stereo not given) = -1.78%
• CC(C)c1ncc(Cl)c(C(=O)N2CCN(C3CC3)CC2)n1 = -7.86%
• CC(C)NC(=O)C1CCN(c2snc3ccccc23)CC1 = -9.65%
• CC(=O)N[C@@H]1C[C@H](c2ccc(OCCO)cc2)OC2(CCOCC2)C1 = 7.41%
• Cn1ccnc1CN1CCN(c2ccc(C#N)cc2F)CC1 = -7.5%
• Cc1nn(C)cc1CN(C)C(=O)c1ccccn1 = 1.81%
• CC1COc2ccccc2N1C(=O)CCc1cscn1 (stereo not given) = 3.54%
• N#Cc1cccc(Cl)c1NC1CCN(CC(N)=O)CC1 = -106%
• Cc1cc(CN2CCN(C(=O)NCc3cccs3)CC2)no1 = -4.63%
• CCOCC(O)CN1CCN(C(=O)c2cccc(F)c2)CC1 (stereo not given) = -7.93%
• Cc1csc(C(=O)N2CCC3(CC(N(C)c4ccncn4)C3)C2)c1 (stereo not given) = -5.37%
• Cc1nn(C)cc1C(=O)N1CCCn2nc(CN3CC[C@H](F)C3)cc2C1 = 6.52%
• O=C(Cc1ccc(F)cc1)NCCNS(=O)(=O)c1ccc(F)c(F)c1 = -1.6%
• Cc1nnc(NC(=O)NCC(C)N2CCOCC2)s1 (stereo not given) = -11%

// provenance: ChEMBL document CHEMBL3507680
